- Tested on: L-calcium channel benzothiazepine binding site
- method.notes: Binding at the L-calcium channel benzothiazepine binding site (diltiazem binding)
- test.settings: 10 μM test compound; [3H]-cis-(+)-diltiazem 5 nM; rat cerebral cortex membranes; 20 minutes at 25° C.
compounds and their reported Diltiazem binding [10 μM] % inhibition
Use % as the unit, but write only the number.

Solved entries (count: 3):
[[record]]
compound = "COc1ccc(CN2CCCC(O)(c3cccc(C)c3)C2)cc1.Cl (stereo not shown) [Example 43]"
unit = "%"
obs_value = 55

[[record]]
compound = "COc1cccc(C2(O)CCCN(Cc3cccc(F)c3)C2)c1.Cl (stereo not shown) [Example 32]"
unit = "%"
obs_value = 83.7

[[record]]
compound = "COc1cccc(C2(O)CCCN(Cc3ccc(C#N)cc3)C2)c1.Cl (stereo not shown) [Example 44]"
unit = "%"
obs_value = 52.3


Input line: # assay system L-calcium channel benzothiazepine binding site: give Diltiazem binding [10 μM] % inhibition of COc1cccc(C2(O)CCCN(Cc3ccc(C)c([N+](=O)[O-])c3)C2)c1.Cl (stereo not shown) [Example 50]
Output line: 73.8

Input line: // fetch Diltiazem binding [10 μM] % inhibition; item: COc1cccc(C2(O)CCCN(Cc3cccc(Br)c3)C2)c1.Cl (stereo not shown) [Example 49] ; system: L-calcium channel benzothiazepine binding site
Output line: 90.4

Input line: Find Diltiazem binding [10 μM] % inhibition for COc1cccc(C2(O)CCCN(Cc3ccc(F)cc3)C2)c1.Cl (stereo not shown) [Example 33] on L-calcium channel benzothiazepine binding site and write it down.
Output line: 95

Input line: Output reported Diltiazem binding [10 μM] % inhibition of the compound COc1cccc(C2(O)CCCN(Cc3cc(C(F)(F)F)cc(C(F)(F)F)c3)C2)c1.Cl (stereo not shown) [Example 52] on L-calcium channel benzothiazepine binding site.
Output line: 75.9

Input line: Enter recorded Diltiazem binding [10 μM] % inhibition with L-calcium channel benzothiazepine binding site for COc1cccc(C2(O)CCCN(Cc3cc(F)cc(F)c3)C2)c1.Cl (stereo not shown) [Example 36] here.
Output line: 57.4

###

- Test system: L-calcium channel benzothiazepine binding site
- method.notes: Binding at the L-calcium channel benzothiazepine binding site (diltiazem binding)
- test.settings: 10 μM test compound; [3H]-cis-(+)-diltiazem 5 nM; rat cerebral cortex membranes; 20 minutes at 25° C.
Diltiazem binding [10 μM] % inhibition below 80% gives Condition not met; Diltiazem binding [10 μM] % inhibition at or above it gives Condition met.

Some solved cases for reference:
[[record]]
compound = "COc1cccc(C2(O)CCCN(Cc3ccc(C)cc3)C2)c1.Cl (centres unmarked) [Example 39]"
group_label = "Condition not met"

[[record]]
compound = "COc1cccc(C2(O)CCCN(Cc3cccc(C(F)(F)F)c3)C2)c1.Cl (centres unmarked) [Example 40]"
group_label = "Condition met"

[[record]]
compound = "COc1cccc(C2(O)CCCN(CC(c3ccccc3)c3ccccc3)C2)c1.Cl (centres unmarked) [Example 48]"
group_label = "Condition met"

[[record]]
compound = "COc1cccc(C2(O)CCCN(C(=O)c3ccc(C)cc3)C2)c1 (centres unmarked) [Example 9]"
group_label = "Condition not met"

[[record]]
compound = "COc1cccc(C2(O)CCCN(Cc3ccc([N+](=O)[O-])cc3)C2)c1.Cl (centres unmarked) [Example 42]"
group_label = "Condition not met"


Kindly consider the entry below.
Input line: Hi, just wondering whether COc1cccc(C2(O)CCCN(CCOc3ccccc3)C2)c1.Cl (centres unmarked) [Example 41] shows Diltiazem binding [10 μM] % inhibition of 80% or higher.
Output line: Condition met

###

Reported Diltiazem binding [10 μM] % inhibition is given for each of the following compounds.
- Tested on: L-calcium channel benzothiazepine binding site
- method.notes: Binding at the L-calcium channel benzothiazepine binding site (diltiazem binding)
- test.settings: 10 μM test compound; [3H]-cis-(+)-diltiazem 5 nM; rat cerebral cortex membranes; 20 minutes at 25° C.
Give the quantity in %, number only.

[[record]]
compound = "COc1cccc(C2(O)CCCN(Cc3ccc(Cl)c([N+](=O)[O-])c3)C2)c1.Cl (centres unmarked) [Example 51]"
quantity_kind = "Diltiazem binding [10 μM] % inhibition"
unit = "%"
obs_value = 81.4

[[record]]
compound = "COc1cccc(C2(O)CCCN(Cc3ccc(Cl)c(Cl)c3)C2)c1.Cl (centres unmarked) [Example 37]"
quantity_kind = "Diltiazem binding [10 μM] % inhibition"
unit = "%"
obs_value = 80.7

[[record]]
compound = "COc1cccc(C2(O)CCCN(Cc3ccc(Br)cc3)C2)c1.Cl (centres unmarked) [Example 34]"
quantity_kind = "Diltiazem binding [10 μM] % inhibition"
unit = "%"
obs_value = 78.7

[[record]]
compound = "COc1cccc(C2(O)CCCN(CCc3ccccc3)C2)c1.Cl (centres unmarked) [Example 47]"
quantity_kind = "Diltiazem binding [10 μM] % inhibition"
unit = "%"
obs_value = 79.4


API: the following record is the query input.
Input line: For the compound COc1cccc(C2(O)CCCN(Cc3cccs3)C2)c1.Cl (centres unmarked) [Example 46] , give its measured Diltiazem binding [10 μM] % inhibition value.
Output line: 81.8
